target.under.test: α1H (CaV 3.2) (Homo sapiens, UniProt O95180)
Construct: expressed in transfected cells; host or cells: HEK 293
Sequence (O95180 whole entry): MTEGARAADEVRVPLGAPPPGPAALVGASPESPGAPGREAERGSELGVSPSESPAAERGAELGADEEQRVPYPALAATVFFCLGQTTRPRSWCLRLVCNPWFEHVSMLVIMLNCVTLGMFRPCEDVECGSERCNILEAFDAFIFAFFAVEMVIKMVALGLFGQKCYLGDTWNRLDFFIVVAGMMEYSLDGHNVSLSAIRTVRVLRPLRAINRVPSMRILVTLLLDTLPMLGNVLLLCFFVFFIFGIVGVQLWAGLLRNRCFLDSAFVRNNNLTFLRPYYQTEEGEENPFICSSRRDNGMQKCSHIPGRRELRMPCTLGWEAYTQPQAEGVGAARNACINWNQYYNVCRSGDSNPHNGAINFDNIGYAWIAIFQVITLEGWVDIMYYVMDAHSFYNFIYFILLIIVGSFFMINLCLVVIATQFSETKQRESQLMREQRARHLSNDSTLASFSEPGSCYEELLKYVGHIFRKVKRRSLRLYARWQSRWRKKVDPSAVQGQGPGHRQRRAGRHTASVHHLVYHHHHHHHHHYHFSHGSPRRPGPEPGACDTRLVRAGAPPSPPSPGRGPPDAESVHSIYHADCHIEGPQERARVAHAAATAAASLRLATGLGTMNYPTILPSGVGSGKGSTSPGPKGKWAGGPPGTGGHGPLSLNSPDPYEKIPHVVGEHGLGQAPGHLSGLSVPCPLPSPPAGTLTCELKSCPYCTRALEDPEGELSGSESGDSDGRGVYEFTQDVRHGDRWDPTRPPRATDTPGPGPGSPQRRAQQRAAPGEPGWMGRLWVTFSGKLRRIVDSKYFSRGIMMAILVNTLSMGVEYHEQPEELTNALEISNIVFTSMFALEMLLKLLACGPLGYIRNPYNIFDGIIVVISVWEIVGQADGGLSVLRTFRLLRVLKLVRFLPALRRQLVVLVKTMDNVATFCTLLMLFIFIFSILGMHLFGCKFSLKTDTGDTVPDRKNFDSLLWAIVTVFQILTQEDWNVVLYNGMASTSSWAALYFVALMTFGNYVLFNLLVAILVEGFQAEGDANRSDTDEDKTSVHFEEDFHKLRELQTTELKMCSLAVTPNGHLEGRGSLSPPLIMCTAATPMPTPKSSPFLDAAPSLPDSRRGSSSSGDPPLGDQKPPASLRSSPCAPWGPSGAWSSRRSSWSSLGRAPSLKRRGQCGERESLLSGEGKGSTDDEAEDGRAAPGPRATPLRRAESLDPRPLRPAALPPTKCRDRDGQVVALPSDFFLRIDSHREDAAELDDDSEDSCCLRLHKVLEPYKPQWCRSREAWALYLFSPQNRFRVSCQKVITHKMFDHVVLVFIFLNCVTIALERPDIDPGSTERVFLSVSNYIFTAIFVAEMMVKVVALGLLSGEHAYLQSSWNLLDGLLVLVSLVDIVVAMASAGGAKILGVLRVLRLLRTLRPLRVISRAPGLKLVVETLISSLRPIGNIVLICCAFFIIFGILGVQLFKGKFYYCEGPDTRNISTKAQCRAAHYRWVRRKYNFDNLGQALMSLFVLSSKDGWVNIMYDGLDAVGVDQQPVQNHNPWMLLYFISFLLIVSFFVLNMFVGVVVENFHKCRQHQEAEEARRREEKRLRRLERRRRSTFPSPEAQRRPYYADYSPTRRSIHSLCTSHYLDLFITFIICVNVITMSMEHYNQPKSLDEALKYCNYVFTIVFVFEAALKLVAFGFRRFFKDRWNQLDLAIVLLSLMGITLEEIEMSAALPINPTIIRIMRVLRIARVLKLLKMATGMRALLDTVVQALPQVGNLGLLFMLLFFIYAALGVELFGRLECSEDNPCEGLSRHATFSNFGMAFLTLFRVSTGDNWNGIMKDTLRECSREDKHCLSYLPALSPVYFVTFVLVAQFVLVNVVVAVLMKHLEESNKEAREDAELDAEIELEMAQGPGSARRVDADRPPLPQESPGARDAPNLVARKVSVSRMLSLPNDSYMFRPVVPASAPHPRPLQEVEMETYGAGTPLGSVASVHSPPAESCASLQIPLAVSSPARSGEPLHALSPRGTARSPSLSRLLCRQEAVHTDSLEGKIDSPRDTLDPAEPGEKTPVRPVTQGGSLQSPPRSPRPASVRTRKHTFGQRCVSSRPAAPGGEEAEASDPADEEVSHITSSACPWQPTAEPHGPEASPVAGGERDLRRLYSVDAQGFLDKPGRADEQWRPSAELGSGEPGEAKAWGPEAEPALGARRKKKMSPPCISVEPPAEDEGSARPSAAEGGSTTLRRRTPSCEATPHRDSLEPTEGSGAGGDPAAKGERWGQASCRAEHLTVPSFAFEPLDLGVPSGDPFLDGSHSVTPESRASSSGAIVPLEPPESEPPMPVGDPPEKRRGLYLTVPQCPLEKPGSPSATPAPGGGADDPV
protocol.description: T-type calcium channel block, whole cell patch clamp
Type: cell-based
conditions.used: HEK cells, mainly non-inactivated protocol; values above 10,000 nM represented as 10000
value.type: IC50 (nM)
Respond with the bare value in nM.

Observe how each entry below is paired with its result.
**Query** What IC50 value was documented for this molecule, O=C(CC1(O)CCN(C(=O)[C@@H]2CCCCN2)CC1)Nc1cc(C(F)(F)F)cc(C(F)(F)F)c1 ?
**Result** 520

**Query** What IC50 value was documented for this molecule, N[C@@H]1CCCC[C@H]1C(=O)N1CCC(CNC(=O)c2cc(C(F)(F)F)cc(C(F)(F)F)c2)CC1 (racemic) ?
**Result** 1850

**Query** What IC50 value was documented for this molecule, O=C(Nc1cc(C(F)(F)F)cc(C(F)(F)F)c1)NC1CCN(C(=O)[C@@H]2CCCCN2)CC1 ?
**Result** 950

**Query** What IC50 value was documented for this molecule, O=C(CC1(O)CCN(C(=O)[C@H]2CCCCN2)CC1)Nc1cc(C(F)(F)F)cc(C(F)(F)F)c1 ?
**Result** 1860

**Query** What IC50 value was documented for this molecule, CC1(C(=O)N2CCC(CC(=O)Nc3cc(C(F)(F)F)cc(C(F)(F)F)c3)C2)CCCCN1 (stereo not shown) ?
**Result** 1940

Kindly review the next molecule as well.
**Query** What IC50 value was documented for this molecule, CN1CCCCC1C(=O)N1CCC(CC(=O)Nc2cc(C(F)(F)F)cc(C(F)(F)F)c2)C1 (stereo not shown) ?
**Result** 1950

----------
target.under.test: UniProt O95180
protocol.description: T-type calcium channel block, whole cell patch clamp
conditions.used: HEK cells, mainly non-inactivated protocol; values above 10,000 nM represented as 10000
value.type: IC50 (nM)
Respond with the bare value in nM.

Observe how each entry below is paired with its result.
**Query** What IC50 value was documented for this molecule, N[C@H]1CCCC[C@@H]1C(=O)N1CCC(CC(=O)Nc2cc(Cl)cc(Cl)c2)CC1 (racemic) [Compound 17] ?
**Result** 690

**Query** What IC50 value was documented for this molecule, O=C(CC1CN(C(=O)C2CCCCN2)C1)Nc1cc(C(F)(F)F)cc(C(F)(F)F)c1 (stereo not shown) [Compound 39] ?
**Result** 1210

**Query** What IC50 value was documented for this molecule, CN1CCCC(C(=O)N2CCC(CC(=O)Nc3cc(C(F)(F)F)cc(C(F)(F)F)c3)C2)C1 (stereo not shown) [Compound 36] ?
**Result** 2440

Kindly review the next molecule as well.
**Query** What IC50 value was documented for this molecule, CC(C)(N)CC(=O)N1CCC(CC(=O)Nc2cc(C(F)(F)F)cc(C(F)(F)F)c2)CC1 [Compound 42] ?
**Result** 570

----------
target.under.test: α1G (CaV 3.1) (Homo sapiens, UniProt O43497)
Sequence (O43497 whole entry): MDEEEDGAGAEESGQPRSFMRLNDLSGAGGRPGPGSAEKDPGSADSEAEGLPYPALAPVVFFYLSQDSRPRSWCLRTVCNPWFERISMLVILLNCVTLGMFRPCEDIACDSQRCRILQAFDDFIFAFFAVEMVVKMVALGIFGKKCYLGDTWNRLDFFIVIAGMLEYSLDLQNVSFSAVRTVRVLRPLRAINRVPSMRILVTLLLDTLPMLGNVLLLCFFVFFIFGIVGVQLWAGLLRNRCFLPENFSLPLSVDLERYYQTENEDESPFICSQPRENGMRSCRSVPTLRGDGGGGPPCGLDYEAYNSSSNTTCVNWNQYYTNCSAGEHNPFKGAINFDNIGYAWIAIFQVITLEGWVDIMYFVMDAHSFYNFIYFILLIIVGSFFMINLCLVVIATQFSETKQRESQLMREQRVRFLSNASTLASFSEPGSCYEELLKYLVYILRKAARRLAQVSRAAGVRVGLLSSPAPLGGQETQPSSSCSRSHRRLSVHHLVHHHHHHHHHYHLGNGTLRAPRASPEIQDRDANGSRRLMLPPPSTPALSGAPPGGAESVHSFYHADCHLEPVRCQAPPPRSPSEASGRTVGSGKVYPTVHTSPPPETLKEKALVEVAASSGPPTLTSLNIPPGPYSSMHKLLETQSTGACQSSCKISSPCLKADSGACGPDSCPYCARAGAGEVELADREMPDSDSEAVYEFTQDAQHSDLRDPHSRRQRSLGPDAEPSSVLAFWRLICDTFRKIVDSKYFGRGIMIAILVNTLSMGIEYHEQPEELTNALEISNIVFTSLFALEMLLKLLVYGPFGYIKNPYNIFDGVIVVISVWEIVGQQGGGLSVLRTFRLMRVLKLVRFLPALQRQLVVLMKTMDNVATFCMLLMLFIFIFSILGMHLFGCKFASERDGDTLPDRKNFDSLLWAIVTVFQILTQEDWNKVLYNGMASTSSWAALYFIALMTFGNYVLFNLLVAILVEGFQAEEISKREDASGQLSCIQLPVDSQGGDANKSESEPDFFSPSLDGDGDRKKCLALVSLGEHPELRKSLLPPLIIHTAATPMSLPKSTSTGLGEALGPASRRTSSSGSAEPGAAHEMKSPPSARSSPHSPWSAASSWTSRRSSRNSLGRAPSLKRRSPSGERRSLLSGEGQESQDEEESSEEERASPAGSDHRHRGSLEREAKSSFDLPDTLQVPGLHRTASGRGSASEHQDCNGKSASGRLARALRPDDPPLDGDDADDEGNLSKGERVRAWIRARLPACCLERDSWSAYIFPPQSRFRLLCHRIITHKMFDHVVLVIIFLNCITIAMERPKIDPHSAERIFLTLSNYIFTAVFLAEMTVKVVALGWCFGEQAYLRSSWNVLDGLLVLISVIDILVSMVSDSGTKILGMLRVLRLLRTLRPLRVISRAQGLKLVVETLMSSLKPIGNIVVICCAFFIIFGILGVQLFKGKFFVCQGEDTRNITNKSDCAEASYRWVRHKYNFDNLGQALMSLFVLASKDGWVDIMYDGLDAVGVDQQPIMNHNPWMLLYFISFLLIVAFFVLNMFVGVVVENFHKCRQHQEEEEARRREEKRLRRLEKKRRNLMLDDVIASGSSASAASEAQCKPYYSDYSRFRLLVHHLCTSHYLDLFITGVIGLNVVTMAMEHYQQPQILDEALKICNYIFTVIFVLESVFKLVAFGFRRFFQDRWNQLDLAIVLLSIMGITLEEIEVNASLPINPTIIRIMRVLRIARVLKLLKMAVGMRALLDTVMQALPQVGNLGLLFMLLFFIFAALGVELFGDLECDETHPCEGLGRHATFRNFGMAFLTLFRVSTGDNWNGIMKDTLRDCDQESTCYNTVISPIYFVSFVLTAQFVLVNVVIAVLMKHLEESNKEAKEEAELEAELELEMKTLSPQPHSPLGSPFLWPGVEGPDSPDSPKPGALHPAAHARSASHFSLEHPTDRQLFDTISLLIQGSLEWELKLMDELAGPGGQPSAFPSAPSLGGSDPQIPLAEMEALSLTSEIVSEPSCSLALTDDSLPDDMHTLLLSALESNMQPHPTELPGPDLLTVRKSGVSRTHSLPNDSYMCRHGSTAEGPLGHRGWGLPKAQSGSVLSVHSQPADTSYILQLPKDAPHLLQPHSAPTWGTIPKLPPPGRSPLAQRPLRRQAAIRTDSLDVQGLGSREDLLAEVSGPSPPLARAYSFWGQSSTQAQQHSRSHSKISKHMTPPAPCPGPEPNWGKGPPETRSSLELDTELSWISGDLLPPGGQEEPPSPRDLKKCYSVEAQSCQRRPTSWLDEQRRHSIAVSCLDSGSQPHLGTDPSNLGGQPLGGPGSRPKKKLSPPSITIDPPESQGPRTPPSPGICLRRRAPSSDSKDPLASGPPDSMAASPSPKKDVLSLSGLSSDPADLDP
protocol.description: T-type calcium channel block, whole cell patch clamp
conditions.used: HEK cells, mainly non-inactivated protocol; values above 10,000 nM represented as 10000
pIC50: −log10 of the molar value.
pIC50: recorded values

**Query** What pIC50 value was documented for this compound, CC(C)(N)CC(=O)N1CC(CC(=O)Nc2cc(C(F)(F)F)cc(C(F)(F)F)c2)C1 ?
**Result** < 5.00

**Query** What pIC50 value was documented for this compound, O=C(CC1CCN(C(=O)C2CCCCN2)C1)Nc1cc(C(F)(F)F)cc(C(F)(F)F)c1 (stereo not shown) ?
**Result** 5.15

**Query** What pIC50 value was documented for this compound, N[C@@H]1CCCC[C@H]1C(=O)N1CCC(CNC(=O)c2cc(C(F)(F)F)cc(C(F)(F)F)c2)CC1 (racemic) ?
**Result** < 5.00

**Query** What pIC50 value was documented for this compound, N[C@H]1CCCC[C@@H]1C(=O)N1CCC(CC(=O)Nc2cc(C(F)(F)F)cc(C(F)(F)F)c2)CC1 ?
**Result** < 5.00

**Query** What pIC50 value was documented for this compound, CC(C)(CN)C(=O)N1CCC(CC(=O)Nc2cc(C(F)(F)F)cc(C(F)(F)F)c2)C1 (stereo not shown) ?
**Result** < 5.00

**Query** What pIC50 value was documented for this compound, O=C(CC1CN(C(=O)C2CCCCN2)C1)Nc1cc(C(F)(F)F)cc(C(F)(F)F)c1 (stereo not shown) ?
**Result** < 5.00

**Query** What pIC50 value was documented for this compound, CC(C)(N)CC(=O)N1CCC(CC(=O)Nc2cc(C(F)(F)F)cc(C(F)(F)F)c2)C1 (stereo not shown) ?
**Result** < 5.00

----------
System: 6 Hz psychomotor seizure
protocol.description: 6 Hz psychomotor seizure model of partial epilepsy
Type: in vivo, mice
Design: concentration or dose not given beside the values
conditions.used: 0.5 hr
Epilepsy 6 Hz (% Protected): recorded values
Respond with the bare value in %.

Observe how each entry below is paired with its result.
**Query** What measured Epilepsy 6 Hz (% Protected) is associated with N[C@@H]1CCCC[C@H]1C(=O)N1CCC(CC(=O)Nc2cc(C(F)(F)F)cc(C(F)(F)F)c2)CC1 (racemic) on 6 Hz psychomotor seizure?
**Result** 75

**Query** What measured Epilepsy 6 Hz (% Protected) is associated with NC1(CC(=O)N2CCC(CNC(=O)Nc3cc(C(F)(F)F)cc(C(F)(F)F)c3)CC2)CCCCC1 on 6 Hz psychomotor seizure?
**Result** 50

---
**Query** What measured Epilepsy 6 Hz (% Protected) is associated with O=C(Nc1cc(C(F)(F)F)cc(C(F)(F)F)c1)OCC1CCN(C(=O)[C@H]2CCCCN2)CC1 on 6 Hz psychomotor seizure?
**Result** 75

**Query** What measured Epilepsy 6 Hz (% Protected) is associated with NC1(CC(=O)N2CCC(O)(CC(=O)Nc3cc(C(F)(F)F)cc(C(F)(F)F)c3)CC2)CCCCC1 on 6 Hz psychomotor seizure?
**Result** 75

**Query** What measured Epilepsy 6 Hz (% Protected) is associated with NC1(CC(=O)N2CCC(CC(=O)Nc3cc(C(F)(F)F)cc(C(F)(F)F)c3)CC2)CCCCC1 on 6 Hz psychomotor seizure?
**Result** 75

**Query** What measured Epilepsy 6 Hz (% Protected) is associated with CC1(CC(=O)Nc2cc(C(F)(F)F)cc(C(F)(F)F)c2)CCN(C(=O)[C@H]2CCCCN2)CC1 on 6 Hz psychomotor seizure?
**Result** 75

**Query** What measured Epilepsy 6 Hz (% Protected) is associated with N[C@@H]1CCCC[C@@H]1C(=O)N1CCC(CC(=O)Nc2cc(C(F)(F)F)cc(C(F)(F)F)c2)CC1 on 6 Hz psychomotor seizure?
**Result** 100

----------
log10(IC50): recorded values
target.under.test: α1H (CaV 3.2) (Homo sapiens)
protocol.description: T-type calcium channel block, whole cell patch clamp
conditions.used: HEK cells, mainly non-inactivated protocol; values above 10,000 nM represented as 10000
Values reflect log10 of reported IC50 (nM).

Observe how each entry below is paired with its result.
**Query** What measured log10(IC50) is associated with N[C@@H]1CCCC[C@H]1C(=O)N1CCC(CNC(=O)Nc2cc(C(F)(F)F)cc(C(F)(F)F)c2)CC1 (racemic) on α1H (CaV 3.2) (Homo sapiens)?
**Result** 2.40

**Query** What measured log10(IC50) is associated with N[C@H]1CCCC[C@H]1C(=O)N1CC(CC(=O)Nc2cc(C(F)(F)F)cc(C(F)(F)F)c2)C1 (racemic) on α1H (CaV 3.2) (Homo sapiens)?
**Result** 2.93

---
**Query** What measured log10(IC50) is associated with CC(C)(CN)C(=O)N1CCC(CC(=O)Nc2cc(C(F)(F)F)cc(C(F)(F)F)c2)C1 (stereo not shown) on α1H (CaV 3.2) (Homo sapiens)?
**Result** 3.53

**Query** What measured log10(IC50) is associated with N[C@@H]1CCCC[C@H]1C(=O)N1CCC(CC(=O)Nc2cc(C(F)(F)F)cc(C(F)(F)F)c2)CC1 [Compound 6] on α1H (CaV 3.2) (Homo sapiens)?
**Result** 2.40

**Query** What measured log10(IC50) is associated with N[C@@H]1CCCC[C@H]1C(=O)N1CCC(NC(=O)Nc2cc(C(F)(F)F)cc(C(F)(F)F)c2)CC1 (racemic) on α1H (CaV 3.2) (Homo sapiens)?
**Result** 2.43

**Query** What measured log10(IC50) is associated with N[C@@H]1CCCC[C@H]1C(=O)N1CCC(O)(CC(=O)Nc2cc(C(F)(F)F)cc(C(F)(F)F)c2)CC1 (relative stereo) on α1H (CaV 3.2) (Homo sapiens)?
**Result** 2.69

**Query** What measured log10(IC50) is associated with O=C(Nc1cc(C(F)(F)F)cc(C(F)(F)F)c1)NC1CCN(C(=O)[C@H]2CCCCN2)CC1 on α1H (CaV 3.2) (Homo sapiens)?
**Result** 2.84

**Query** What measured log10(IC50) is associated with NC1(C(=O)N2CCC(CC(=O)Nc3cc(C(F)(F)F)cc(C(F)(F)F)c3)CC2)CCCCC1 on α1H (CaV 3.2) (Homo sapiens)?
**Result** 3.00

**Query** What measured log10(IC50) is associated with CC(C)(CN)C(=O)N1CCC(CC(=O)Nc2cc(C(F)(F)F)cc(C(F)(F)F)c2)CC1 on α1H (CaV 3.2) (Homo sapiens)?
**Result** 2.73

**Query** What measured log10(IC50) is associated with N[C@H]1CCCC[C@@H]1C(=O)N1CCC(CC(=O)Nc2ccc(Br)c(C(F)(F)F)c2)CC1 (racemic) on α1H (CaV 3.2) (Homo sapiens)?
**Result** 2.96

**Query** What measured log10(IC50) is associated with N[C@H]1CCCC[C@H]1C(=O)N1CCC(CC(=O)Nc2cc(C(F)(F)F)cc(C(F)(F)F)c2)CC1 (racemic) on α1H (CaV 3.2) (Homo sapiens)?
**Result** 2.00

**Query** What measured log10(IC50) is associated with N[C@H]1CCCC[C@H]1C(=O)N1CCC(CC(=O)Nc2cc(C(F)(F)F)cc(C(F)(F)F)c2)C1 (stereo partly shown) on α1H (CaV 3.2) (Homo sapiens)?
**Result** 2.85

**Query** What measured log10(IC50) is associated with N[C@@H]1CCCC[C@@H]1C(=O)N1CCC(NC(=O)Nc2cc(C(F)(F)F)cc(C(F)(F)F)c2)CC1 (racemic) on α1H (CaV 3.2) (Homo sapiens)?
**Result** 2.63

**Query** What measured log10(IC50) is associated with O=C(CC1CCN(C(=O)C2CCCCN2)C1)Nc1cc(C(F)(F)F)cc(C(F)(F)F)c1 (stereo not shown) on α1H (CaV 3.2) (Homo sapiens)?
**Result** 2.76

**Query** What measured log10(IC50) is associated with N[C@H]1CCCC[C@@H]1C(=O)N1CCC(CC(=O)Nc2cc(C(F)(F)F)cc(C(F)(F)F)c2)C1 (stereo partly shown) on α1H (CaV 3.2) (Homo sapiens)?
**Result** 2.41
